The measurements presented in this section are drawn from PubChem BioAssay.

# Test system: Chordin-like protein 2 (CHRDL2)
# RUN_DESCRIPTION: compounds binding chordin-like 2 – biochemical, small-molecule microarray, 635 nm fluorescence, primary screen (AID 1126);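 note: printed compound slides probed with Chrdl2 protein at 4 µg/mL for 1 h at 4 C; score merges 667 nm emission intensity with signal to noise over three replicate slides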
# CONDITION_DESCRIPTION: fluorescence 635 nm, higher = more signal
Classification field: enter yes (1) for composite z-score values not below 0.4, no (0) for values below it.

MOLECULE | GROUP
COCCOC(=O)N1C(=O)[C@@]2(c3cc(C#CCCO)ccc31)[C@H](c1ccc(O)cc1)N1[C@H](c3ccccc3)[C@H](c3ccccc3)OC(=O)[C@H]1[C@@H]2C(=O)N1CCN(c2ncccn2)CC1 | yes (1)
CCN(CC)c1ccc(N2CC=CC34O[C@@H]5C=CCOC(=O)[C@@H]5[C@H]3C(=O)N(CCCCCCO)[C@@H]4C2=O)cc1 (stereo not given in full) | no (0)
CC(C)NC(=O)[C@@]1(Cc2ccccc2I)c2ccccc2C(=O)N(Cc2ccccc2Cl)[C@H]1c1ccc(CO)cc1 | yes (1)
O=C(CS)NCCCCCNC(=O)[C@@H]1C[C@@H]2C(=O)NCC(=O)N2[C@@H]1c1cccc(OCCO)c1 | yes (1)
C=CCOC(=O)[C@H]1[C@@H]2C(=O)O[C@@H](c3ccccc3)[C@@H](c3ccccc3)N2[C@@H](c2ccc(OCCOC(=O)[C@H]3C[C@H]4C(=O)N[C@@H](CCCCN(C)C)C(=O)N4[C@H]3c3cccc(OCCO)c3)cc2)[C@]12C(=O)Nc1ccc(I)cc12 | yes (1)
C=CCN1C(=O)[C@]2(Cc3ccccc3)N=C(c3ccc(OCCCO)cc3)O[C@@H]2c2ccccc21 | yes (1)
COCCOC(=O)N1C(=O)[C@@]2(c3cc(C#CC4(O)CCCCCC4)ccc31)[C@H](C(=O)Nc1nc3ccccc3s1)[C@H]1C(=O)O[C@H](c3ccccc3)[C@H](c3ccccc3)N1[C@@H]2c1ccccc1OCCO | no (0)
COC(=O)C(CC#Cc1ccc2c(c1)[C@]1(C(=O)N2)[C@H](c2ccccc2OCCO)N2[C@H](c3ccccc3)[C@H](c3ccccc3)OC(=O)[C@H]2[C@@H]1C(N)=O)C(=O)OC | no (0)
CC(=CC1CCCCC1)[C@@H](NC(=O)c1cccnc1)c1ccc(-c2ccccc2)cc1 | no (0)
O=C1OCCC=C[C@H]2OC34C=CCN(Cn5nnc6ccccc65)C(=O)[C@H]3N(CCO)C(=O)[C@@H]4C12 (stereo not given in full) | no (0)
COCCOC(=O)N1C(=O)[C@@]2(c3cc(C#CC4(O)CCCCCC4)ccc31)[C@H](c1ccccc1OCCO)N1[C@H](c3ccccc3)[C@H](c3ccccc3)OC(=O)[C@H]1[C@@H]2C(=O)N1CCc2cc(OC)c(OC)cc2C1 | no (0)
COCCCNC(=O)[C@@]1(Sc2ccc(C)cc2)CC(=O)N(Cc2ccccc2Cl)[C@@H]1c1ccc(CO)cc1 | yes (1)
CC(=O)NCCCC[C@@H]1NC(=O)[C@H]2C[C@@H](C(=O)NCCCCCNC(=O)CS)[C@@H](c3ccc(O)cc3)N2C1=O | no (0)
COc1ccc(C(O)C2C=CC3C(=O)N(C)C(=O)C3N2NC(=O)OC(C)(C)C)c2ccccc12 (stereo not given) | no (0)
O=C(NC1CC1)[C@@H]1c2ccccc2C(=O)N(C2Cc3ccccc3C2)[C@H]1c1ccc(CO)cc1 | yes (1)
COCCCNC(=O)[C@@H]1c2ccccc2C(=O)N(Cc2ccccc2OC)[C@H]1c1ccc(CO)cc1 | yes (1)
C=C(CCCC)/C(=C/C[C@H](OC(C)=O)c1ccc(OCCO)cc1)c1cnc2ccccc2c1 | yes (1)
NC(=O)[C@@H]1[C@H]2C(=O)O[C@H](c3ccccc3)[C@H](c3ccccc3)N2[C@H](c2ccc(OCCO)cc2)[C@@]12C(=O)Nc1ccc(C#CC3=CCCCC3)cc12 | yes (1)
O=C(CS)NCCCCCNC(=O)[C@@H]1C[C@@H]2C(=O)NCC(=O)N2[C@@H]1c1ccc(O)cc1 | yes (1)

----------
# RUN_DESCRIPTION: blockers of DNA damage checkpoint Chk1 activation – imaging, HeLa, hydroxyurea, phospho-Chk1 nuclear intensity, primary screen (AID 1187); note: test concentration not given here
# CONDITION_DESCRIPTION: hydroxyurea-induced phospho-Chk1 immunofluorescence imaging, higher = more signal
Classification field: enter YES for z-score values not below 0.1, NO for values below it.

COMPOUND | GROUP
CCCNC(=O)[C@@H]1c2ccccc2C(=O)N(Cc2ccccc2OC)[C@H]1c1ccc(CO)cc1 | NO
CC(c1ccccc1)C(O)C1C=CC2C(=O)N(c3ccccc3)C(=O)C2N1Nc1ccccc1 (stereo not given) | YES
COc1ccc(NC(=O)O[C@H]2[C@H](OC(=O)c3cc4ccccc4[nH]3)[C@@H](OC(=O)c3cc4ccccc4[nH]3)[C@@H](OC)O[C@@H]2CO)cc1 | NO
CCCCCN1CC=CC23O[C@@H]4C=CCOC(=O)[C@@H]4[C@H]2C(=O)N(C(C)CO)[C@@H]3C1=O (stereo not given in full) | YES
NC(=O)N1C(=O)C2C(C1=O)C1C=C(CCCO)C2C(C2CC2)N1Cc1cc2c(cc1Br)OCO2 (stereo not given) | YES
CCOc1ccc(N2C(=O)CSC2c2cccc([N+](=O)[O-])c2)cc1 (stereo not given) | NO
CCCC=C(CCC)[C@@H](NC(=O)OCC(C)C)c1ccccc1 | YES
C=CCOC(=O)[C@H]1[C@@H]2C(=O)O[C@@H](c3ccccc3)[C@@H](c3ccccc3)N2[C@@H](c2ccc(OCCOC(=O)[C@H]3C[C@H]4C(=O)N[C@@H](CCCCN(C)C)C(=O)N4[C@H]3c3cccc(OCCO)c3)cc2)[C@]12C(=O)Nc1ccc(I)cc12 | NO
O=C1OCCC=C[C@H]2OC34C=CCN(c5ccc(Cl)cc5)C(=O)[C@H]3N(CCCO)C(=O)[C@@H]4C12 (stereo not given in full) | NO
C=CCN1Cc2ccccc2[C@@H]2OC(c3ccc(OCCCO)cc3)=N[C@]2(CCS(=O)(=O)c2ccccc2)C1=O | NO
OB1C=CCC(CCc2ccccc2)O1 (stereo not given) | NO
O=C1OCC=C[C@H]2OC34C=CCN(Cn5nnc6ccccc65)C(=O)[C@H]3N(CCCCCO)C(=O)[C@@H]4[C@@H]12 (stereo not given in full) | NO
COc1cc2c(cc1O)C=[N+](Cc1cc3c(cc1Br)OCO3)CC2 | NO
COCCCNC(=O)[C@@H]1c2ccccc2C(=O)N(Cc2ccccc2)[C@H]1c1ccc(CO)cc1 | NO
CS(=O)(=O)CCOC(=O)C1=CC(CCCO)=CC(C2CC2)N(Cc2cc3c(cc2Br)OCO3)C=C1C(=O)OCCS(C)(=O)=O (stereo not given) | NO
COC(=O)[C@@]1(Cc2ccccc2)[C@H]2c3cc(C(=O)N4CCCC4)n(Cc4c(CO)[nH]cc(C)c4=O)c3C[C@H]2CN1C(=O)c1ccccc1 | YES
CC(=O)NCCCC[C@@H]1NC(=O)[C@H]2C[C@@H](C(=O)O)[C@@H](c3ccc(O)cc3)N2C1=O | YES
CC(C)CNC(=O)[C@@]1(Cc2ccccc2I)c2ccccc2C(=O)N(Cc2ccccc2C(F)(F)F)[C@H]1c1ccc(CO)cc1 | YES
O=C1O[C@H](c2ccccc2)[C@H](c2ccccc2)N2[C@H]1[C@@H](C(=O)NC[C@H](O)c1ccccc1)[C@]1(C(=O)Nc3ccccc31)[C@H]2c1ccc(O)cc1 | YES
NC(=O)NCC#Cc1ccc2c(c1)[C@]1(C(=O)N2)[C@H](C(=O)O)[C@H]2C(=O)O[C@H](c3ccccc3)[C@H](c3ccccc3)N2[C@@H]1c1ccc(O)cc1 | YES

----------
# Tested on: Human papillomavirus type 1a protein E7 (residues 44-93)
# RUN_DESCRIPTION: small molecules binding HPV E7 44-93 – biochemical, small-molecule microarray, residues 44-93, 635 nm fluorescence, primary screen (AID 1108);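 note: E7 fragment applied at 1 µg/mL in TBST for 1 h at 4 C; score combines spot fluorescence with its signal to noise ratio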
# CONDITION_DESCRIPTION: fluorescence 635 nm, higher = more signal
# label = bin(measured composite z-score), where bins are LOW = under 0.7, MID = from 0.7 up to 1, HIGH = 1 and over

MOLECULE | GROUP
O=C1O[C@@H](c2ccccc2)[C@@H](c2ccccc2)N2[C@@H](c3ccccc3OCCO)[C@]3(C(=O)Nc4ccccc43)[C@@H](C(=O)O)[C@H]12 | HIGH
C=CC1c2cc(O)c(OC)cc2CCN1Cc1cccc(OC(F)(F)F)c1 (stereo unspecified) | LOW
COC(=O)[C@@]1(Cc2ccc(OC)cc2)[C@H]2c3cc(C(=O)N4CCCC4)n(Cc4nc5ccccc5[nH]4)c3C[C@H]2CN1C(=O)c1ccccc1 | HIGH
COCCOC(=O)N1C(=O)[C@@]2(c3ccccc31)[C@H](C(=O)N1CCCCCCC1)[C@H]1C(=O)O[C@H](c3ccccc3)[C@H](c3ccccc3)N1[C@@H]2c1ccc(OCCO)cc1 | HIGH
CO[C@H]1O[C@H](CO)[C@@H](OC(=O)Nc2ccc(Br)cc2)[C@@H]2OC(=O)[C@H](Cc3cccc(Br)c3)C/C=C/C[C@@H](Cc3cccc(Br)c3)C(=O)O[C@@H]12 | LOW
Cc1ccc(S(=O)(=O)N2C[C@@H](C(=O)O)[C@H](Sc3ccccc3)C[C@H]2c2ccccc2)cc1 | HIGH
C=C(CCCC)/C(=C/C[C@H](OC(C)=O)c1ccc(OCCO)cc1)c1cnc2ccccc2c1 | HIGH
COc1ccc([C@H]2C[C@H]3C(I)=C[C@@H]2C(=O)[C@]32CO2)cc1 | LOW
C=CCN1Cc2ccccc2[C@@H]2OC(c3ccc(OCCCO)cc3)=N[C@]2(CCS(=O)(=O)c2ccccc2)C1=O | HIGH
CS(=O)(=O)CCOC(=O)C1=CC(CCCO)=CC(C2CC2)N(Cc2cc3c(cc2Br)OCO3)C=C1C(=O)OCCS(C)(=O)=O (stereo unspecified) | HIGH
[N-]=[N+]=NCc1ccccc1[C@@H]1OC(c2ccc(OCCCO)cc2)=N[C@]1(CCS(=O)(=O)c1ccccc1)C(=O)N1CCCCC1 | HIGH
CC[C@@H]1C=C(C(=O)O)[C@H](c2ccc(C)cc2)N1S(=O)(=O)c1ccc(C)cc1 | MID
O=C1C[C@@](C(=O)NCc2ccccc2)(c2ccc([N+](=O)[O-])cc2)[C@@H](c2ccc(CO)cc2)N1CC12CC3CC(CC(C3)C1)C2 | HIGH
CC(C)C(=C=CC[C@H](O)c1ccc(CO)o1)CCO | HIGH
COc1ccc([C@H]2C[C@H]3C(Br)=C[C@@]2(CO)C(=O)[C@]32CO2)cc1 | LOW
CCCCCCCCCCC(O)C1C=CC2C(=O)NC(=O)C2N1Nc1ccc(Cl)cc1Cl (stereo unspecified) | MID
CC(C)(C)OC(=O)CC[C@@]1(C(=O)N2CCCCC2)N=C(c2ccc(OCCCO)cc2)O[C@@H]1c1ccccc1 | HIGH
COc1ccccc1CN1C(=O)c2ccccc2[C@@H](C(=O)NCc2ccccc2)[C@@H]1c1ccc(CO)cc1 | MID
CCCCN1CC=CC23O[C@@H]4C=CCCOC(=O)C4[C@H]2C(=O)N(CCCCCO)[C@@H]3C1=O (stereo partly specified) | LOW
CCCCC(=C=CC[C@H](O)c1cccc(OCCO)c1)C[C@H](O)c1ccccn1 | LOW
